- test.target: T1, human TROP2 protein (Sino Biological, #10428-H08H) (human, UniProt P09758 27-274)
- T1 construct: bought protein; also called human Trop2 protein antigen (His tag); not shown: His tag
- T1 sequence (looked up): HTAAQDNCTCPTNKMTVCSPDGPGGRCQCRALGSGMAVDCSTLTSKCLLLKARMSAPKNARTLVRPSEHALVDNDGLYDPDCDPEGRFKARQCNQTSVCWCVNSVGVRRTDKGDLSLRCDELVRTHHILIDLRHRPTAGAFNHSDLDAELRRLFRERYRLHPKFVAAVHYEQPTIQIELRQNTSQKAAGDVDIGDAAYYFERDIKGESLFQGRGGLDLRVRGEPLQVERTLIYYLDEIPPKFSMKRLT
- protocol.notes: BLI, Octet RED96, AHC sensor
readout.kind: kon (M⁻¹ s⁻¹)
Unit M⁻¹ s⁻¹ implied. Number only.

PR001143 (antibody, human IgG1, kappa, V domains shown, fully human IgG1/kappa; also called antibody No. (10)) VH: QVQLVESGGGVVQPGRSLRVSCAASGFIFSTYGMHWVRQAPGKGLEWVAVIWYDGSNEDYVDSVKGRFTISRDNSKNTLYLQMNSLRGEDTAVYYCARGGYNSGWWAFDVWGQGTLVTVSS VL: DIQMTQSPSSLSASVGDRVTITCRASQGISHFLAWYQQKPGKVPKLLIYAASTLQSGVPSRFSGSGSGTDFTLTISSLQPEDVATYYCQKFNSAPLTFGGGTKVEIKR = 80100
PR001171 (antibody, human IgG1, kappa, V domains shown, fully human IgG1/kappa; also called antibody No. (30)) VH: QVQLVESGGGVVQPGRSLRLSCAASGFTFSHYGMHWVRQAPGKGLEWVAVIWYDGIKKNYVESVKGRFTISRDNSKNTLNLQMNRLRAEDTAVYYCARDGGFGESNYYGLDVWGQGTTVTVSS VL: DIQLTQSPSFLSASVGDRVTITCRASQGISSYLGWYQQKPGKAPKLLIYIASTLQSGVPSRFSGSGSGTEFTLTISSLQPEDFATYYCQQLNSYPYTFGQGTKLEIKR = 149000

Moving on to the next binder.
**Q:** So what does the record say about kon for PR001128 (antibody, human IgG1, kappa, V domains shown, fully human IgG1/kappa; also called antibody No. (1)) VH: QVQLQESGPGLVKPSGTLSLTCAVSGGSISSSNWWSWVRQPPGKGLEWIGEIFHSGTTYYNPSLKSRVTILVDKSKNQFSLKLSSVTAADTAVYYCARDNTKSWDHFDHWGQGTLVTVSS VL: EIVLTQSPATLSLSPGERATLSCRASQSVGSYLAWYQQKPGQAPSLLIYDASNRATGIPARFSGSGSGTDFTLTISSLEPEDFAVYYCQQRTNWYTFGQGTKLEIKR ?
**A:** 130000
